Sourced from ChEMBL document CHEMBL1131134

# tgt: Adenosine receptor A2a (Rattus norvegicus) (UniProt P30543)
# Sequence (P30543 whole entry): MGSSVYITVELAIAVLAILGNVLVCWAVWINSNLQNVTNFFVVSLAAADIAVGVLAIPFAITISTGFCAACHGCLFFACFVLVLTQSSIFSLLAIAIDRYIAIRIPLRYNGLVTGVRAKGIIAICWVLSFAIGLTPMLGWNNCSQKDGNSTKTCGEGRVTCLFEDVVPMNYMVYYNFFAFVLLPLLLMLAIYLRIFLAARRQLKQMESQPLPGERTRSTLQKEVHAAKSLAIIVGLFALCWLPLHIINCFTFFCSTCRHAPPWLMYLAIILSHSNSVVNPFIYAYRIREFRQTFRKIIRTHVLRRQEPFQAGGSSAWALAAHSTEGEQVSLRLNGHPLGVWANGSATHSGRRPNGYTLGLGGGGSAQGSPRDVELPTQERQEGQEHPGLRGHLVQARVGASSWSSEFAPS
# protocol.summary: Antagonistic activity assayed by displacement of specific [3H]-CGS-21,680 binding in rat striatal membrane (adenosine A2A receptor) at a conc of […].
# Assay type: cell membranes
# applied.conditions: Striatum
Overview of recorded Displacement for various molecules
Only the number, expressed in %, is required.

Past entries and their recorded results:
structure.smiles	Displacement, %
Cc1cccc(C(=O)Nc2nc(-c3ccccn3)cc3ccccc23)c1	0
Cc1ccc(C(=O)Nc2nc(-c3ccccn3)cc3ccccc23)cc1C	0

molecule `Cc1ccc(C(=O)Nc2nc(-c3ccccn3)cc3ccccc23)cc1` , Displacement observed: 0

###

# tgt: Adenosine receptor A2a (Rattus norvegicus) (UniProt P30543)
# protocol.summary: Antagonistic activity assayed by displacement of specific [3H]-CGS-21,680 binding in rat striatal membrane (adenosine A2A receptor) at a conc of […].
# Format: cell membranes
# applied.conditions: Striatum
Entries and their Displacement
Note: unit % is implicit; provide only the numeric part.

Worked cases, Displacement given:
structure.smiles	unit	Displacement
COc1ccc(C(=O)Nc2nc(-c3ccccn3)cc3ccccc23)cc1OC	%	20
N=C(Nc1nc(-c2ccccn2)cc2ccccc12)c1ccccc1	%	4
Cc1ccc(C)c(C(=O)Nc2nc(-c3ccccn3)cc3ccccc23)c1	%	7
CC(=O)Nc1nc(-c2ccccn2)nc2ccccc12	%	17
COc1cccc(C(=O)Nc2nc(-c3ccccn3)cc3ccccc23)c1	%	0
O=C(Cc1nc(-c2ccccn2)cc2ccccc12)c1ccccc1	%	22
N=CNc1nc(-c2ccccn2)nc2ccccc12	%	17
O=C(Nc1nc(-c2ccccn2)cc2ccccc12)c1ccc(Cl)cc1	%	0
O=C(Nc1nc(-c2ccccn2)cc2ccccc12)c1cccc(Cl)c1	%	0
Cc1ccc(C(=O)Nc2nc(-c3ccccn3)cc3ccccc23)c(C)c1	%	0

Lab note: compound `Cc1cccc(C)c1C(=O)Nc1nc(-c2ccccn2)cc2ccccc12` tested on Adenosine receptor A2a (Rattus norvegicus) (UniProt P30543); recorded Displacement was 0

Test item `O=C(Nc1nc(-c2ccccn2)cc2ccccc12)c1ccc(Cl)c(Cl)c1` ; Adenosine receptor A2a (Rattus norvegicus) (UniProt P30543); reported Displacement was 0

Sample `Cc1cc(C)cc(C(=O)Nc2nc(-c3ccccn3)cc3ccccc23)c1` , system: Adenosine receptor A2a (Rattus norvegicus) (UniProt P30543). Its Displacement is 0

Case `O=C(c1ccccc1)N(C(=O)c1ccccc1)c1nc(-c2ccccn2)nc2ccccc12` , Adenosine receptor A2a (Rattus norvegicus) (UniProt P30543), Displacement recorded as 3

Summary: `O=C(Nc1nc(-c2ccccn2)nc2ccccc12)C(F)(F)F` , Adenosine receptor A2a (Rattus norvegicus) (UniProt P30543), Displacement = 0

// assay Adenosine receptor A2a (Rattus norvegicus) (UniProt P30543), entry `CC(C)C(=O)Nc1nc(-c2ccccn2)cc2ccccc12` , Displacement value = 48

Known value: Adenosine receptor A2a (Rattus norvegicus) (UniProt P30543) Displacement of the compound `COc1ccc(C(=O)Nc2nc(-c3ccccn3)cc3ccccc23)cc1` equals 0

The observed Displacement for `O=C(Nc1nc(-c2ccccn2)nc2ccccc12)c1ccccc1` when tested with Adenosine receptor A2a (Rattus norvegicus) (UniProt P30543) stands at 2

Entry `O=C(c1ccccc1)N(C(=O)c1ccccc1)c1nc(-c2ccccn2)cc2ccccc12` , tested on Adenosine receptor A2a (Rattus norvegicus) (UniProt P30543), has a reported Displacement of 27

Tested system Adenosine receptor A2a (Rattus norvegicus) (UniProt P30543); Displacement recorded for `N=CNc1nc(-c2ccccn2)cc2ccccc12` was 42

###

Below, each entry is listed alongside its reported Displacement.
# tgt: Adenosine receptor A1 (Rattus norvegicus)
# protocol.summary: Antagonist activity by displacement of specific [3H]DPCPX binding in rat cortical membrane (Adenosine A1 receptor) at a Conc of […].
# Format: cell membranes
Form entry: value (%) — number only.

Example results:
structure.smiles	unit	Displacement
Cc1ccc(C(=O)Nc2nc(-c3ccccn3)cc3ccccc23)cc1C	%	16
N=CNc1nc(-c2ccccn2)nc2ccccc12	%	38
COc1ccc(C(=O)Nc2nc(-c3ccccn3)nc3ccccc23)cc1	%	41
COc1ccc(C(=O)Nc2nc(-c3ccccn3)cc3ccccc23)cc1	%	14
O=C(c1ccccc1)N(C(=O)c1ccccc1)c1nc(-c2ccccn2)nc2ccccc12	%	3
O=C(Nc1nc(-c2ccccn2)nc2ccccc12)C(F)(F)F	%	8

Entry `Cc1cccc(C(=O)Nc2nc(-c3ccccn3)cc3ccccc23)c1` — recorded Displacement = 35

Measured Displacement, `O=C(Nc1nc(-c2ccccn2)cc2ccccc12)c1ccc(Cl)c(Cl)c1` : 0

Entry `Oc1nc(-c2ccccn2)cc2ccccc12` ; Displacement = 21

Recorded Displacement (molecule `Cc1cc(C)cc(C(=O)Nc2nc(-c3ccccn3)cc3ccccc23)c1` ): 8

For reference, reported Displacement for `CC(C)C(=O)Nc1nc(-c2ccccn2)cc2ccccc12` stands at 38

For reference, reported Displacement for `CC(=O)Nc1nc(-c2ccccn2)nc2ccccc12` stands at 25

The recorded Displacement for entry `Cc1ccc(C)c(C(=O)Nc2nc(-c3ccccn3)cc3ccccc23)c1` equals 29

Lab book: Displacement of `O=C(Nc1nc(-c2ccccn2)cc2ccccc12)c1cccc(Cl)c1` noted as 42

The recorded Displacement for `Cc1ccc(C(=O)Nc2nc(-c3ccccn3)cc3ccccc23)c(C)c1` is 14

# Displacement (molecule: `Oc1nc(-c2ccccn2)nc2ccccc12` ) is 16

The measured Displacement associated with `O=C(Nc1nc(-c2ccccn2)cc2ccccc12)c1ccc(Cl)cc1` reads 11

Looking up `CC(=O)Nc1nc(-c2ccccn2)cc2ccccc12` , I found its Displacement recorded as 24

The molecule `O=C(Nc1nc(-c2ccccn2)nc2ccccc12)c1ccccc1` showed Displacement equal to 0

Noted for `COc1cccc(C(=O)Nc2nc(-c3ccccn3)cc3ccccc23)c1` : its Displacement reads 22

Displacement reported for this molecule `COc1ccc(C(=O)Nc2nc(-c3ccccn3)cc3ccccc23)cc1OC` : 41

For reference, reported Displacement for `Cc1ccc(C(=O)Nc2nc(-c3ccccn3)cc3ccccc23)cc1` stands at 37

Given item `Cc1cccc(C)c1C(=O)Nc1nc(-c2ccccn2)cc2ccccc12` , the value recorded as its Displacement is 2

###

# tgt: Adenosine receptor A2a (Rattus norvegicus) (UniProt P30543)
# protocol.summary: Antagonistic activity assayed by displacement of specific [3H]-CGS-21,680 binding in rat striatal membrane (adenosine A2A receptor) at a conc of […].
# Type: cell membranes
# applied.conditions: Striatum
outcome.measure: Displacement (%)
Quick note: give the figure in %, leave out the unit.

These solved cases illustrate the format of a correct answer.
structure.smiles	unit	recorded.measurement
COc1ccc(C(=O)Nc2nc(-c3ccccn3)nc3ccccc23)cc1	%	20
CC(=O)Nc1nc(-c2ccccn2)cc2ccccc12	%	18
Oc1nc(-c2ccccn2)nc2ccccc12	%	10

Next, consider the following molecule.
# Displacement (molecule: `O=C(Nc1nc(-c2ccccn2)cc2ccccc12)c1ccccc1` ) is 0
